- assay_overview: Stability study, sealed in aluminum-plastic composite film, 40° C. and 75% relative humidity
- Type: physicochemical
- recorded_conditions: End of 3 months; 40° C., 75% relative humidity; HPLC
Quick list: Content per entry.
Give the quantity in %, number only.

Consider the reported Content for these compounds:
CC(=O)NC1C(O)[C@H](O)C(CO)O[C@H]1OC1C(O)[C@H](O[C@H]2C(CO)OC(O)C(O)C2O)OC(CO)[C@@H]1O (stereo partly shown) [Example 2 Crystalline form A, Lacto-N-triose II] | 98.23
CC(=O)NC1C(O)[C@H](O)C(CO)O[C@H]1OC1C(O)[C@H](O[C@H]2C(CO)OC(O)C(O)C2O)OC(CO)[C@@H]1O (stereo partly shown) [Example 4 Crystalline form A, Lacto-N-triose II] | 92.27
CC(=O)NC1C(O)[C@H](O)C(CO)O[C@H]1OC1C(O)[C@H](O[C@H]2C(CO)OC(O)C(O)C2O)OC(CO)[C@@H]1O (stereo partly shown) [Example 5 Crystalline form A, Lacto-N-triose II] | 92.64

Fill blank: measured Content of the compound CC(=O)NC1C(O)[C@H](O)C(CO)O[C@H]1OC1C(O)[C@H](O[C@H]2C(CO)OC(O)C(O)C2O)OC(CO)[C@@H]1O (stereo partly shown) [Example 6 Crystalline form A, Lacto-N-triose II] is ____. 91.93

Need Content, item CC(=O)NC1C(O)[C@H](O)C(CO)O[C@H]1OC1C(O)[C@H](O[C@H]2C(CO)OC(O)C(O)C2O)OC(CO)[C@@H]1O (stereo partly shown) [Example 1 Crystalline form A, Lacto-N-triose II] 97.96

For the compound CC(=O)NC1C(O)[C@H](O)C(CO)O[C@H]1OC1C(O)[C@H](O[C@H]2C(CO)OC(O)C(O)C2O)OC(CO)[C@@H]1O (stereo partly shown) [Example 7 Crystalline form A, Lacto-N-triose II] , what Content is on record? 98.56

Any idea what Content was measured for CC(=O)NC1C(O)[C@H](O)C(CO)O[C@H]1OC1C(O)[C@H](O[C@H]2C(CO)OC(O)C(O)C2O)OC(CO)[C@@H]1O (stereo partly shown) [Example 3 Crystalline form A, Lacto-N-triose II] ? 97.88

---

Here the recorded Content is given for each entry.
- assay_overview: Stability study, sealed in aluminum-plastic composite film, 40° C. and 75% relative humidity
- Type: physicochemical
- recorded_conditions: Day 0; LNTII content by HPLC
# value in %; strip the unit string

Answered examples (5):
CC(=O)NC1C(O)[C@H](O)C(CO)O[C@H]1OC1C(O)[C@H](O[C@H]2C(CO)OC(O)C(O)C2O)OC(CO)[C@@H]1O (stereo partly shown) [Example 6 Crystalline form A, Lacto-N-triose II] | 91.98
CC(=O)NC1C(O)[C@H](O)C(CO)O[C@H]1OC1C(O)[C@H](O[C@H]2C(CO)OC(O)C(O)C2O)OC(CO)[C@@H]1O (stereo partly shown) [Example 5 Crystalline form A, Lacto-N-triose II] | 92.57
CC(=O)NC1C(O)[C@H](O)C(CO)O[C@H]1OC1C(O)[C@H](O[C@H]2C(CO)OC(O)C(O)C2O)OC(CO)[C@@H]1O (stereo partly shown) [Example 3 Crystalline form A, Lacto-N-triose II] | 97.87
CC(=O)NC1C(O)[C@H](O)C(CO)O[C@H]1OC1C(O)[C@H](O[C@H]2C(CO)OC(O)C(O)C2O)OC(CO)[C@@H]1O (stereo partly shown) [Example 1 Crystalline form A, Lacto-N-triose II] | 97.98
CC(=O)NC1C(O)[C@H](O)C(CO)O[C@H]1OC1C(O)[C@H](O[C@H]2C(CO)OC(O)C(O)C2O)OC(CO)[C@@H]1O (stereo partly shown) [Example 2 Crystalline form A, Lacto-N-triose II] | 98.18

If you can, please state the reported Content value of CC(=O)NC1C(O)[C@H](O)C(CO)O[C@H]1OC1C(O)[C@H](O[C@H]2C(CO)OC(O)C(O)C2O)OC(CO)[C@@H]1O (stereo partly shown) [Example 7 Crystalline form A, Lacto-N-triose II] . 98.58

Quick one: Content for CC(=O)NC1C(O)[C@H](O)C(CO)O[C@H]1OC1C(O)[C@H](O[C@H]2C(CO)OC(O)C(O)C2O)OC(CO)[C@@H]1O (stereo partly shown) [Example 4 Crystalline form A, Lacto-N-triose II] ? 92.30

---

- assay_overview: Hygroscopicity study in constant temperature and humidity chamber
- Assay type: physicochemical
- recorded_conditions: Example 9; 25° C., 75% relative humidity, after 5 days
readout_label: Moisture rate (%)
The reply should contain only the number, in %.

CC(=O)NC1C(O)[C@H](O)C(CO)O[C@H]1OC1C(O)[C@H](O[C@H]2C(CO)OC(O)C(O)C2O)OC(CO)[C@@H]1O (stereo partly shown) [Example 1 Crystalline form A, Lacto-N-triose II] | 12.87
CC(=O)NC1C(O)[C@H](O)C(CO)O[C@H]1OC1C(O)[C@H](O[C@H]2C(CO)OC(O)C(O)C2O)OC(CO)[C@@H]1O (stereo partly shown) [Example 3 Crystalline form A, Lacto-N-triose II] | 14.09
CC(=O)NC1C(O)[C@H](O)C(CO)O[C@H]1OC1C(O)[C@H](O[C@H]2C(CO)OC(O)C(O)C2O)OC(CO)[C@@H]1O (stereo partly shown) [Example 4 Crystalline form A, Lacto-N-triose II] | 13.61

Tell me the measured Moisture rate of CC(=O)NC1C(O)[C@H](O)C(CO)O[C@H]1OC1C(O)[C@H](O[C@H]2C(CO)OC(O)C(O)C2O)OC(CO)[C@@H]1O (stereo partly shown) [Example 5 Crystalline form A, Lacto-N-triose II] , please. 13.79

---

- assay_overview: Stability study, sealed in aluminum-plastic composite film, 40° C. and 75% relative humidity
- Assay type: physicochemical
- recorded_conditions: End of 2 months; 40° C., 75% relative humidity; HPLC
readout_label: Content

As a guide, the following entries are already answered.
CC(=O)NC1C(O)[C@H](O)C(CO)O[C@H]1OC1C(O)[C@H](O[C@H]2C(CO)OC(O)C(O)C2O)OC(CO)[C@@H]1O (stereo partly shown) [Example 5 Crystalline form A, Lacto-N-triose II] | 92.51%
CC(=O)NC1C(O)[C@H](O)C(CO)O[C@H]1OC1C(O)[C@H](O[C@H]2C(CO)OC(O)C(O)C2O)OC(CO)[C@@H]1O (stereo partly shown) [Example 2 Crystalline form A, Lacto-N-triose II] | 98.22%

Requested read-out: Content. Entry: CC(=O)NC1C(O)[C@H](O)C(CO)O[C@H]1OC1C(O)[C@H](O[C@H]2C(CO)OC(O)C(O)C2O)OC(CO)[C@@H]1O (stereo partly shown) [Example 3 Crystalline form A, Lacto-N-triose II] 97.93%

# lookup: Content of CC(=O)NC1C(O)[C@H](O)C(CO)O[C@H]1OC1C(O)[C@H](O[C@H]2C(CO)OC(O)C(O)C2O)OC(CO)[C@@H]1O (stereo partly shown) [Example 7 Crystalline form A, Lacto-N-triose II] 98.48%

Reported Content, compound CC(=O)NC1C(O)[C@H](O)C(CO)O[C@H]1OC1C(O)[C@H](O[C@H]2C(CO)OC(O)C(O)C2O)OC(CO)[C@@H]1O (stereo partly shown) [Example 6 Crystalline form A, Lacto-N-triose II] : ____ 91.84%

# query: Content of entry CC(=O)NC1C(O)[C@H](O)C(CO)O[C@H]1OC1C(O)[C@H](O[C@H]2C(CO)OC(O)C(O)C2O)OC(CO)[C@@H]1O (stereo partly shown) [Example 1 Crystalline form A, Lacto-N-triose II] 97.97%

# Content lookup, item CC(=O)NC1C(O)[C@H](O)C(CO)O[C@H]1OC1C(O)[C@H](O[C@H]2C(CO)OC(O)C(O)C2O)OC(CO)[C@@H]1O (stereo partly shown) [Example 4 Crystalline form A, Lacto-N-triose II] 92.33%

---

- assay_overview: Hygroscopicity study in constant temperature and humidity chamber
- Format: physicochemical
- recorded_conditions: Example 9; 25° C., 75% relative humidity, after 5 days
- Method: • Step 1: Preparation of glass petri dishes One day before the experiment, place glass petri dishes (without lids) in a constant temperature and humidity chamber set at 25±1° C. and 75±2% relative humidity for 4 hours. Take out the dishes, accurately weigh, and repeat until consistent weight readings are obtained. […]
readout_label: Moisture rate (%)
Your answer is read as %, so omit the unit and give the number.

Below, 2 compounds whose answers are already recorded.
CC(=O)NC1C(O)[C@H](O)C(CO)O[C@H]1OC1C(O)[C@H](O[C@H]2C(CO)OC(O)C(O)C2O)OC(CO)[C@@H]1O (stereo partly drawn) [Example 2 Crystalline form A, Lacto-N-triose II] | 13.26
CC(=O)NC1C(O)[C@H](O)C(CO)O[C@H]1OC1C(O)[C@H](O[C@H]2C(CO)OC(O)C(O)C2O)OC(CO)[C@@H]1O (stereo partly drawn) [Example 6 Crystalline form A, Lacto-N-triose II] | 13.32

Could you now consider this next compound?
Any idea what Moisture rate was measured for CC(=O)NC1C(O)[C@H](O)C(CO)O[C@H]1OC1C(O)[C@H](O[C@H]2C(CO)OC(O)C(O)C2O)OC(CO)[C@@H]1O (stereo partly drawn) [Example 7 Crystalline form A, Lacto-N-triose II] ? 12.74
